assay-overview: yeast display, Sf9 membrane polyspecificity reagent, FACS + sequencing; frameworks hold sequencing errors
value-type: polyreactivity (PSR sort gate)

INSERT INTO assay_data (macromolecule_sequence, endpoint_value) VALUES
  ('QVQLVESGGGLVQAGGSLRLSCAASGSTFPKYAMGWYRQAPGKERELVATISSGTRTYYADSVKGRFTISRDNAKNTVYLQMNSLKPEDTAVYYCAARYQPRKGAHYGYWGQGTQVTVSS', 'high polyreactivity'),
  ('QVQLVESGGGIVQAGGSLRLSCAASGRTLQRNAMGWYRQAPGKERELVAAISWSGASTYYADSVKGRFTISRDNAKNTVYLQMNSLKPEDTAVYYCAATYIDRGNIYDYWGQGTQVTVSS', 'high polyreactivity'),
  ('QVQHVESGGGLVQAGGSLRLSCAASGSTFGGYTMGWSRQAPGTERELVASIRSGGSTYYADSVKGRFTISRDNAKNTVYLQMNSLKPEVTAVYYCAADGRRDRDYWGQGTQVTVSS', 'high polyreactivity');
